Source listed as PubChem BioAssay AID2740.

assay: TOR pathway RPL19A-GFP modulators, concentration series – cell-based, S. cerevisiae, flow cytometry, MLPCN hits, dose response (AID 2740);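 further: background is signal of the same compound in parental non-GFP s288c yeast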; settings: S. cerevisiae RPL19A-GFP strain, flow cytometry fluorescence, 3 h; at 33 µM (top of the series)
# met = GFP fluorescence, lower = active (kMESF (background-subtracted)) below 40 (exclusive); not met = GFP fluorescence, lower = active (kMESF (background-subtracted)) at/above 40

Look over these answered cases.
CN(C)C(=O)Oc1ccnc2cc(Cl)ccc12    met
Cc1ccc(/C=C2\SC(=S)N(CC3CCCO3)C2=O)o1 (stereo unspecified)    not met
CC(C)C(=O)NC(c1cccs1)c1cc([N+](=O)[O-])c2cccnc2c1O (stereo unspecified)    met

Turning to the following compound.
Find out if reported GFP fluorescence, lower = active (kMESF (background-subtracted)) for COC(=O)CCC(=O)OC1(C)C(=O)C2=COC(c3ccc(OC)cc3)=CC2=C(Br)C1=O (stereo unspecified) is less than 40
met

====

test: TOR pathway RPL19A-GFP modulators, concentration series – cell-based, S. cerevisiae, flow cytometry, MLPCN hits, dose response (AID 2740);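 further: background is signal of the same compound in parental non-GFP s288c yeast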; settings: S. cerevisiae RPL19A-GFP strain, flow cytometry fluorescence, 3 h; at 33 µM (top of the series)
result-type: GFP fluorescence, lower = active (kMESF (background-subtracted))
Numbers only.

Example compounds with recorded GFP fluorescence, lower = active (kMESF (background-subtracted)):
Cc1cc(=O)oc2cc(Oc3ccc([N+](=O)[O-])cc3C(F)(F)F)ccc12    44.2
O=c1oc2ccccc2c(O)c1[C@H]1c2ccc(O)cc2Oc2c1c(=O)oc1ccccc21    34.8
Oc1c(C(Nc2cccc(C(F)(F)F)c2)c2ccncc2)ccc2cccnc12 (stereo not given)    45.3
O=C(c1ccccc1)c1ccccc1N1C(=O)C=CC1=O    26
CN(O)/C=c1/ccc2c(n1)C(=O)C=CC=2    39.2

Need GFP fluorescence, lower = active (kMESF (background-subtracted)) for each of these compounds.
1. COc1ccc(-c2cc(C(F)(F)F)nc(S(C)(=O)=O)n2)cc1
2. COc1ccc(NC(=O)/C(C#N)=C/c2ncc([N+](=O)[O-])n2C)c(OC)c1
3. COc1ccc(N2C(=O)C(Cl)=C(Nc3c(C)n(C)n(-c4ccccc4)c3=O)C2=O)cc1

1. 44.7
2. 41.5
3. 39.8

Hey, can you go through the list below and give me GFP fluorescence, lower = active (kMESF (background-subtracted)) for every item?
1. O=[N+]([O-])c1cc(CN2CCN(c3ccccc3)CC2)c(O)c2ncccc12
2. O=[N+]([O-])c1ccc(Sc2nc3ccccc3o2)c([N+](=O)[O-])c1

[45.6, 45.5]

====

test: TOR pathway RPL19A-GFP modulators, concentration series – cell-based, S. cerevisiae, flow cytometry, MLPCN hits, dose response (AID 2740);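 further: background is signal of the same compound in parental non-GFP s288c yeast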; conditions: S. cerevisiae RPL19A-GFP strain, flow cytometry fluorescence, 3 h; at 33 µM (top of the series)
Assign GFP fluorescence, lower = active (kMESF (background-subtracted)) to each entry below.
Numbers only.

Use these answered entries as a reference point.
Cc1ccc(C(=O)Sc2cccccc2=O)cc1    27.8
Cc1ccc(C(=O)NNC(=S)NC(=O)COc2ccccc2)cc1    41.1
O=[N+]([O-])c1cnc(Sc2ccncn2)s1    31.1
O=C(c1ccc(Cl)cc1)N1CCN(c2cccc3[nH]ccc23)CC1    41.9
CC(C)CC(=O)NC(=S)Nc1nc(-c2ccccc2)cs1    38.4

Would you be so kind as to report GFP fluorescence, lower = active (kMESF (background-subtracted)) for each listed record?
1. COc1ccc(/C=C/C(=O)C2C(=O)C=C(C)OC2=O)cc1O (stereo unspecified)
2. COc1ccccc1[C@]1(C)ON(c2ccccc2C(F)(F)F)C1=O
3. O=C(Nc1nnc(-c2ccc3c(c2)CCCC3)o1)c1ccc(Cl)cc1Cl
4. CCn1c(/C=C/c2ccc([N+](=O)[O-])o2)nc2ccccc2c1=O
5. N#Cc1nccnc1S(=O)(=O)c1cccs1
6. CCOc1cc(C=C2C(=O)c3ccccc3C2=O)ccc1OCC(=O)Nc1ccc(C)cc1
7. N#Cc1ccc(N=c2ssnc2Cl)cc1

39
30.8
37.2
-37.1
35.5
43.8
42

Items follow; give GFP fluorescence, lower = active (kMESF (background-subtracted)) for each.
1. CC(OC(=O)c1ccco1)C(=O)Nc1nc(-c2ccccc2)cs1 (stereo unspecified)
2. O=C(Nc1nnc(-c2ccc(F)cc2)o1)c1cc(Cl)sc1Cl
3. CC(Oc1ccc2ccccc2c1)C(=O)NNC(=S)NC(=O)c1ccco1 (stereo unspecified)
4. Cc1[nH][nH]c(=O)c1C(c1ccc(-c2ccc(Cl)c(Cl)c2)o1)c1c(C)[nH][nH]c1=O
5. N/C(=N\OC(=O)c1cc(Br)ccc1Cl)c1ccccn1

1. 37.1
2. 51.4
3. 34.3
4. 43.4
5. 39.8

I'm hoping you can list GFP fluorescence, lower = active (kMESF (background-subtracted)) for every compound here, please.
1. O=C(NC(=S)NNC(=O)[C@H]1C[C@@H]1c1ccccc1)c1cccc(F)c1
2. c1ccc(-c2cccc(-c3ccccn3)n2)nc1
3. Cc1cc(O)c(C(=O)/C=C/c2ccc(Cl)cc2)c(=O)o1
4. CCC(=O)Nc1ccc(NC(=O)c2cc3ccccc3o2)cc1
5. COc1cccc(/C=C2\SC(=S)N(CCCC(=O)Nc3ccc(C(=O)O)cc3)C2=O)c1
6. N/C(=N\OC(=O)c1cccc(Br)c1)c1ccccc1

[45.1, 36.2, 33, 39.4, 38.2, 40.8]
